# TEST SYSTEM: T1, CD3ε homodimer protein (human, UniProt P07766 23-126, limits assumed)
# T1 construct: Whole entry named for the human CD3 epsilon chain
# T1 sequence (P07766 23-126 limits assumed): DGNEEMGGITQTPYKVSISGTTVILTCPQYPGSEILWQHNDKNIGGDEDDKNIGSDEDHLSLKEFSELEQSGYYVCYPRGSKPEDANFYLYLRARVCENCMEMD
# ASSAY PROCEDURE: SPR, CD3e immobilized
ASSAY ENDPOINT: KD ratio to GLS3000
The answer should be a number; do not append a unit.

Solved entries (count: 2):
GLS3000 N28D (antibody, IgG1, name in Kabat numbering, V domains shown) VH: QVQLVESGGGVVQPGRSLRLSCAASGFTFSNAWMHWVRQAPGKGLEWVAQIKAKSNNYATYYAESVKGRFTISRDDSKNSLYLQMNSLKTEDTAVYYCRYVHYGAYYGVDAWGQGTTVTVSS VL: DIVMTQSPLSLPVTPGEPASISCRSSQSLVHSDRNTYLHWYQQKPGQAPRLLIYKVSNRFSGVPDRFSGSGSGTDFTLKISRVEAEDVGVYYCGQGTQVPYTFGQGTKLEIK	4460
GLS3000 G89W (antibody, IgG1, name in Kabat numbering, V domains shown) VH: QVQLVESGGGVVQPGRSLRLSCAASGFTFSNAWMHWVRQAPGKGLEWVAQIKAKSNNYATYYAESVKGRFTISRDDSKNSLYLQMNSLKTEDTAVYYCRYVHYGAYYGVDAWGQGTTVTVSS VL: DIVMTQSPLSLPVTPGEPASISCRSSQSLVHSNRNTYLHWYQQKPGQAPRLLIYKVSNRFSGVPDRFSGSGSGTDFTLKISRVEAEDVGVYYCWQGTQVPYTFGQGTKLEIK	2.3

# context switch: different binder, same KD ratio to GLS3000
I have this binder here, GLS3000 H34R (antibody, IgG1, name in Kabat numbering, V domains shown) VH: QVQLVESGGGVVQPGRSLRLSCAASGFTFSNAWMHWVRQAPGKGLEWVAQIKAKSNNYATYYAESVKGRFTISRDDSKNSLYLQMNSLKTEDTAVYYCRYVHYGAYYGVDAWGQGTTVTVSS VL: DIVMTQSPLSLPVTPGEPASISCRSSQSLVHSNRNTYLRWYQQKPGQAPRLLIYKVSNRFSGVPDRFSGSGSGTDFTLKISRVEAEDVGVYYCGQGTQVPYTFGQGTKLEIK , and I need its recorded KD ratio to GLS3000. 85800
